- System: S6K1
- measurement.conditions: concentration: 1 μM,replicates: in singlicate; n = 1;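 further: KINOMEscan kinase panel screen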
Could you label it 1 if measured %Inh is 9% or higher, and -1 otherwise?

compound: Cl.Oc1cc(-c2nc(-c3ccccc3)[nH]c2-c2ccncc2)ccc1Cl [SB-386023]
system.under.test: S6K1
label: -1

compound: CC(C)N1C(=O)Cc2cc(Nc3ncc(C(F)(F)F)c(NCc4cccc(S(C)(=O)=O)c4)n3)ccc21
system.under.test: S6K1
label: 1

compound: Cc1n[nH]c2ccc(-c3cc(OC[C@@H](N)Cc4ccccc4)cnc3-c3ccoc3)cc12.O=C(O)C(F)(F)F.O=C(O)C(F)(F)F [GSK507358]
system.under.test: S6K1
label: 1

compound: CCN(CC)CCOc1ccc(Nc2ncc3cc(-c4c(Cl)cccc4Cl)c(=O)n(C)c3n2)cc1 [SB-601273]
system.under.test: S6K1
label: 1

Alright, here's another compound for you.
query: Reported %Inh at or above 9%? CN(C)CC(O)COc1ccc(Nc2nccc(-c3cnn4nc(N5CCOCC5)ccc34)n2)cc1 (stereo not shown) [GW767488]
result: 1

---

%Inh listing for selected molecules.
- System: RSK3(Kin.Dom.1-N-terminal)
- Construct: gene RPS6KA2
- measurement.conditions: concentration: 1 μM,replicates: in singlicate; n = 1
Just the number please, in %, no unit attached.

Worked examples, 3 molecules total:
line.notation: Cc1occc1-c1nc(N)c(OC[C@@H](N)Cc2c[nH]c3ccccc23)cc1-c1cc2c(C)n[nH]c2cn1
value.unit: %
%Inh: 87

line.notation: Cl.Cl.NC[C@H](CC1CCCCC1)NC(=O)c1cc(Br)c(-c2ccnc3[nH]ccc23)s1
value.unit: %
%Inh: 38

line.notation: Cc1n[nH]c2ccc(-c3cc(OC[C@@H](N)Cc4ccccc4)cnc3-c3ccoc3)cc12.O=C(O)C(F)(F)F.O=C(O)C(F)(F)F
value.unit: %
%Inh: 12

query: Look up and state reported %Inh for COc1ccc(C[C@@H](CN)NC(=O)c2cc(Br)c(-c3ccnc4[nH]ccc34)s2)cc1.Cl.Cl
result: 63

---

- Test system: AKT1
- measurement.conditions: concentration: 1 μM,replicates: in singlicate; n = 1
Classify: class 1 when %Inh is strictly less than 9%; class 0 when %Inh is not.

compound: O=C(NCCNc1ccnc(NCc2ccc(F)cc2)n1)c1cc2ccccc2s1 [GSK1379944]
label: class 1
//
compound: O=C(NCCCN1CCOC1=O)c1cnc(NCc2cc(Cl)ccc2Cl)nc1NC1CCCC1
label: class 0
//
compound: CCN(CC)CCOc1ccc(Nc2ncc3cc(-c4c(Cl)cccc4Cl)c(=O)n(C)c3n2)cc1 [SB-601273]
label: class 1
//
compound: CN(C)CC(O)COc1ccc(Nc2nccc(-c3cnn4nc(N5CCOCC5)ccc34)n2)cc1 (stereo not shown) [GW767488]
label: class 1
//
compound: Cl.Cl.NC[C@H](Cc1ccc(C(F)(F)F)cc1)NC(=O)c1cc(Br)c(-c2ccnc3[nH]ccc23)s1 [GSK1487252]
label: class 0
//
compound: NC(=O)c1cc(-c2ccccc2)cc2c(C3CCNCC3)c[nH]c12 [GSK301362]
label: class 1
//
compound: C=CC(=O)Nc1cc2c(Nc3ccc(F)c(Cl)c3)ncnc2cc1OCCCN1CCOCC1 [GW781483]
label: class 1
//
compound: CCn1c(-c2nonc2N)nc2c(C#CC(C)(C)O)nc(OCCN)cc21.Cl.Cl [GSK902056]
label: class 0
//
compound: Cl.Cl.NC[C@H](CC1CCCCC1)NC(=O)c1cc(Br)c(-c2ccnc3[nH]ccc23)s1 [GSK1581427]
label: class 0
//
compound: CCN(CC)CCCCNc1ncc2cc(-c3c(Cl)cccc3Cl)c(NC(=O)NC(C)(C)C)nc2n1
label: class 1

query: Hi there! Is %Inh for COc1ccc(C[C@@H](CN)NC(=O)c2cc(Br)c(-c3ccnc4[nH]ccc34)s2)cc1.Cl.Cl [GSK1389063] below 9%, do you know?
result: class 0

query: Hi there! Is %Inh for Nc1nc(Nc2ccccc2)cc(-c2ccc3c(N)n[nH]c3c2)n1 [GSK2225749] below 9%, do you know?
result: class 1

query: Hi there! Is %Inh for Cl.Cl.Nc1nc(-c2ccc3c(N)n[nH]c3c2)cc(N2CCCC(NC(=O)c3ccccc3)C2)n1 (stereo not shown) [GSK2286775] below 9%, do you know?
result: class 1

query: Hi there! Is %Inh for CC(C)N1C(=O)Cc2cc(Nc3ncc(C(F)(F)F)c(NCc4cccc(S(C)(=O)=O)c4)n3)ccc21 below 9%, do you know?
result: class 1

---

- System: TTK
- measurement.conditions: concentration: 1 μM,replicates: in singlicate; n = 1
%Inh listing for selected compounds.

Worked examples, 5 compounds total:
compound: Cl.Cl.Nc1nc(-c2ccc3c(N)n[nH]c3c2)cc(N2CCCC(NC(=O)c3ccccc3)C2)n1 (centres unmarked)
%Inh: 0%
//
compound: Cl.Oc1cc(-c2nc(-c3ccccc3)[nH]c2-c2ccncc2)ccc1Cl
%Inh: 29%
//
compound: Cc1occc1-c1nc(N)c(OC[C@@H](N)Cc2c[nH]c3ccccc23)cc1-c1cc2c(C)n[nH]c2cn1
%Inh: 32%
//
compound: NC(=O)c1cc(-c2ccccc2)cc2c(C3CCNCC3)c[nH]c12
%Inh: 24%
//
compound: C[C@@H](Oc1cc(-c2cnn(C3CCNCC3)c2)cnc1N)c1c(Cl)ccc(F)c1Cl
%Inh: 0%

query: Look up and state reported %Inh for Nc1nc(Nc2ccccc2)cc(-c2ccc3c(N)n[nH]c3c2)n1
result: 24%

query: Look up and state reported %Inh for CC(C)Nc1cc(-c2ccc3c(N)n[nH]c3c2)nc(N)n1
result: 24%

query: Look up and state reported %Inh for COc1ccc(C[C@@H](CN)NC(=O)c2cc(Br)c(-c3ccnc4[nH]ccc34)s2)cc1.Cl.Cl
result: 23%

---

- System: CDKL1
- measurement.conditions: concentration: 1 μM,replicates: in singlicate; n = 1
%Inh listing for selected molecules.
Just the number please, in %, no unit attached.

Worked examples, 3 molecules total:
molecule: CC(C)N1C(=O)Cc2cc(Nc3ncc(C(F)(F)F)c(NCc4cccc(S(C)(=O)=O)c4)n3)ccc21
observed.value: 0
//
molecule: O=C(NCCNc1ccnc(NCc2ccc(F)cc2)n1)c1cc2ccccc2s1 [GSK1379944]
observed.value: 12
//
molecule: CN(C)CCOc1ccc(-c2cc(-c3c[nH]nc3-c3ccccn3)ccn2)cc1 [GW835314]
observed.value: 25

Proceeding to the next molecule to report its %Inh.
query: Look up and state reported %Inh for Cc1cc2cn[nH]c2cc1-c1cccc2c(N)c(C(N)=O)nnc12
result: 29

---

%Inh listing for selected compounds.
- Test system: SGK2
- measurement.conditions: concentration: 1 μM,replicates: in singlicate; n = 1
Just the number please, in %, no unit attached.

Worked examples, 3 compounds total:
compound: CN(C)CCOc1ccc(-c2cc(-c3c[nH]nc3-c3ccccn3)ccn2)cc1
system.under.test: SGK2
%Inh [%]: 9
--
compound: C[C@@H]1CCN(C(=O)CC#N)C[C@@H]1N(C)c1ncnc2[nH]ccc12
system.under.test: SGK2
%Inh [%]: 0
--
compound: Cc1cc(C(=O)Nc2ccc(Oc3ccc4nc(NC(=O)C5CC5)cn4n3)cc2)nn1-c1ccccc1
system.under.test: SGK2
%Inh [%]: 0

query: Look up and state reported %Inh for C=CC(=O)Nc1cc2c(Nc3ccc(F)c(Cl)c3)ncnc2cc1OCCCN1CCOCC1
result: 10

query: Look up and state reported %Inh for COc1ccc(C[C@@H](CN)NC(=O)c2cc(Br)c(-c3ccnc4[nH]ccc34)s2)cc1.Cl.Cl
result: 72

query: Look up and state reported %Inh for O=C(NCCNc1ccnc(NCc2ccc(F)cc2)n1)c1cc2ccccc2s1
result: 4

query: Look up and state reported %Inh for Cl.Oc1cc(-c2nc(-c3ccccc3)[nH]c2-c2ccncc2)ccc1Cl
result: 18

query: Look up and state reported %Inh for CNC(=O)c1ccccc1Sc1ccc2c(/C=C/c3ccccn3)n[nH]c2c1
result: 0

query: Look up and state reported %Inh for CN(C)CC(O)COc1ccc(Nc2nccc(-c3cnn4nc(N5CCOCC5)ccc34)n2)cc1 (centres unmarked)
result: 49

query: Look up and state reported %Inh for Cc1occc1-c1nc(N)c(OC[C@@H](N)Cc2c[nH]c3ccccc23)cc1-c1cc2c(C)n[nH]c2cn1
result: 15

---

- Test system: DDR2
- measurement.conditions: concentration: 1 μM,replicates: in singlicate; n = 1
%Inh listing for selected molecules.

Worked examples, 2 molecules total:
molecule: CN(C)CC(O)COc1ccc(Nc2nccc(-c3cnn4nc(N5CCOCC5)ccc34)n2)cc1 (stereo not drawn)
%Inh: 0%
//
molecule: Cc1cc2cn[nH]c2cc1-c1cccc2c(N)c(C(N)=O)nnc12
%Inh: 0%

query: Look up and state reported %Inh for CNC(=O)c1ccccc1Sc1ccc2c(/C=C/c3ccccn3)n[nH]c2c1
result: 14%

query: Look up and state reported %Inh for CCN(CC)CCOc1ccc(Nc2ncc3cc(-c4c(Cl)cccc4Cl)c(=O)n(C)c3n2)cc1
result: 100%

Source: paper PMC5540273
